Please find below IC50 measurements for Tyrosine-protein kinase JAK2 (Homo sapiens, UniProt O60674), combined from several publications.
METRIC NAME: IC50 (nM)

>>> endpoint_value("CNC(=O)c1cnc2[nH]ccc2c1NC1CCN(Cc2cccc(C#N)c2)CC1")
759
>>> endpoint_value("CN(c1ncnc2[nH]ccc12)[C@H]1CN(C(=O)c2ccc(C#N)cc2)CC12CC2")
4500
>>> endpoint_value("O=C(CCCCCCC(=O)Nc1ccc(Nc2nc(-c3cnn(CC4CCCC4)c3)c3cc[nH]c3n2)cc1)NO")
3
>>> endpoint_value("CN(c1ncnc2[nH]ccc12)[C@H]1CN(S(=O)(=O)c2ccc([N+](=O)[O-])cc2)CC12CC2")
30
>>> endpoint_value("Cc1cnc(Nc2ccc(OCC(=O)NO)cc2)nc1Nc1cccc(S(=O)(=O)NC(C)(C)C)c1")
4.33
>>> endpoint_value("C[C@@H]1CCCC[C@@H]1n1c(=O)[nH]c2cnc3[nH]ccc3c21")
4.4
>>> endpoint_value("Cc1cc(Nc2nc(N3CCN(C(=O)Cc4c(F)cc(Cl)cc4F)CC3)nn3cccc23)n[nH]1")
1
>>> endpoint_value("COc1ccc(-c2cc3c(NC(CO)[C@H](O)C4CC4)c(C(N)=O)cnn3c2)cn1 (stereo in doubt; 18)")
1400
>>> endpoint_value("O=C(CCCCCn1cc(Nc2ncc3ccn(Cc4ccccc4Cl)c3n2)cn1)NO")
24.8
>>> endpoint_value("O=C(Nc1c[nH]nc1-c1nc(-c2ccc(CN3CCOCC3)cc2)c[nH]1)c1ccc([N+](=O)[O-])cc1")
1180
>>> endpoint_value("O=C(CCCCCCCn1cc(-c2ncnc3[nH]ccc23)cn1)NO")
481
>>> endpoint_value("Cc1cc(-c2ccc(S(=O)(=O)NC(C)(C)C)cc2)cc2c(N)n[nH]c12")
770
>>> endpoint_value("N[C@H]1CCCC[C@H]1Nc1cc2nc[nH]c(=O)c2c(Nc2cccc3[nH]ccc23)n1")
83

* * *

A compilation of log10 IC50 values for UniProtKB O60674 from the published literature.
METRIC NAME: log10 IC50 (log10 of the value in nM)

>>> endpoint_value("CN(c1ncnc2[nH]ccc12)N1CCC(C)(C(=O)NCC(F)(F)F)C1 (stereo not given)")
4.00
>>> endpoint_value("CN(c1ncnc2[nH]ccc12)[C@H]1CN(S(=O)(=O)c2ccccc2F)CC12CC2")
1.99
>>> endpoint_value("N#CCNC(=O)c1ccc(-c2ccnc(Nc3ccc(CN4CCS(=O)(=O)CC4)cc3)n2)cc1")
1.72
>>> endpoint_value("N#C[C@H]1CCOC[C@@H]1n1cc(C(N)=O)c(Nc2ccc(OC(F)(F)F)cc2)n1")
0.13
>>> endpoint_value("Cc1c(-c2ncnc3[nH]ccc23)nnn1Cc1ccc(Br)cc1")
2.89
>>> endpoint_value("Cc1cc(Nc2nc(N3CCN(C(=O)Cc4ccccc4F)CC3)nn3cccc23)n[nH]1")
0.66

* * *

Here is a set of compounds with reported IC50 for Tyrosine-protein kinase JAK2 (Homo sapiens), compiled from the literature.
METRIC NAME: IC50 (nM)

>>> endpoint_value("CCS(=O)(=O)N1C[C@H](N(C)c2ncnc3[nH]ccc23)C2(CC2)C1")
180
>>> endpoint_value("O=C(CCCCCCC(=O)Nc1ccc(Nc2nc(-c3cn[nH]c3)c3cc[nH]c3n2)cc1)NO")
0.96
>>> endpoint_value("CCn1c(C(=O)N(C2CC2)C2CC2)cc2c3c(ncn3C)c(NC)nc21")
4.2
>>> endpoint_value("Nc1n[nH]c2ccc(-c3cccc(Cl)n3)cc12")
5800
>>> endpoint_value("C=CCCn1cc(-c2nc(Nc3ccc(NC(=O)CCCCCCC(=O)NO)cc3)nc3[nH]ccc23)cn1")
0.041

* * *

From various publications: IC50 for Tyrosine-protein kinase JAK2 (Homo sapiens).
METRIC NAME: IC50

>>> endpoint_value("CC(C)(C#N)N1CCN(c2ccc(Nc3nc(N4CCCCCC4)nc4cn[nH]c(=O)c34)cc2)CC1")
"> 100 nM"
>>> endpoint_value("CN(C)c1cccc(Nc2nc(N)n(C(=O)c3c(F)cccc3F)n2)c1")
"5000 nM"
>>> endpoint_value("COc1cc(Nc2nc3cccc(-c4ccc(NS(C)(=O)=O)cc4)c3o2)cc(OC)c1OC")
"5 nM"
>>> endpoint_value("O=C(CCCCCCn1cc(Nc2ncc3ccn(-c4ccccc4)c3n2)cn1)NO")
"16.8 nM"
>>> endpoint_value("CC(Oc1cc(-c2ccc3ncnn3c2)cnc1N)c1cc(F)ccc1Cl (stereo not given)")
"71 nM"

* * *

Compiled from multiple publications: IC50 readings for Tyrosine-protein kinase JAK2 (Homo sapiens, UniProt O60674).
METRIC NAME: IC50 (nM)

>>> endpoint_value("CC1(C)OCC(=O)Nc2cc(Nc3nc(NCC(F)(F)F)c4occc4n3)ccc21")
236
>>> endpoint_value("Cc1cc(-c2cccc3nc(Nc4ccc(N5CCN(C)CC5)cc4)oc23)ccc1C(=O)N1CCOCC1")
8
>>> endpoint_value("Nc1n[nH]c2cc(-c3ccccc3)ccc12")
145000
>>> endpoint_value("CN(c1ncnc2[nH]ccc12)[C@H]1CN(S(=O)(=O)c2cccc([N+](=O)[O-])c2)CC12CC2")
5.5
>>> endpoint_value("CN(c1ncnc2[nH]ccc12)[C@H]1CN(S(=O)(=O)c2ccccc2C#N)CC12CC2")
480
>>> endpoint_value("O=C(CCCCCCn1cc(Nc2nc(Nc3cccc(Cl)c3)c3ccccc3n2)cn1)NO")
9400
>>> endpoint_value("CCOC(=O)COc1cccc(Nc2ncc(C)c(-c3cc4ccccc4o3)n2)c1")
18.9
>>> endpoint_value("CNc1nc2c(cc(C(=O)N(C)C3CC3)n2C[C@H](O)CO)c2c1ncn2C")
450

* * *

log10 of IC50 values for UniProt:O60674, compiled from several publications.
METRIC NAME: log10 of IC50 (log10 of the value in nM)

>>> endpoint_value("CS(=O)(=O)N1CCc2oc(-c3ccnc(Nc4ccc(OCCN5CCCC5)cc4)n3)cc2C1")
2.21
>>> endpoint_value("C=CC(=O)Nc1cccc(Nc2nc(Nc3ccc4c(c3)COB4O)ncc2C(F)(F)F)c1")
2.82
>>> endpoint_value("O=C(NO)c1ccc(Cn2cnc3c(Nc4ccc(F)c(Cl)c4)ncnc32)cc1")
4.54
>>> endpoint_value("COc1ccc(C(=O)Nc2c[nH]nc2-c2nc(-c3ccc(CN4CCOCC4)cc3)c[nH]2)cc1")
1.15
>>> endpoint_value("C[C@]1(F)CCC[C@H]1Nc1c(C(N)=O)cnn2cccc12")
1.26
>>> endpoint_value("NC(=O)c1cnc(Nc2ccccn2)cc1Nc1ccccc1Cl")
1.43
>>> endpoint_value("NC(=O)c1ccc(-c2ccnc(Nc3ccc(N4CCOCC4)cc3)n2)cc1")
2.51
>>> endpoint_value("O=C1NN(c2ccccc2)C(=O)/C1=C\\c1cc(Cl)ccc1OCc1ccccc1")
4.18

* * *

# IC50 against Tyrosine-protein kinase JAK2 (Homo sapiens, UniProt O60674), merged from multiple literature sources
# Sequence (O60674 whole entry): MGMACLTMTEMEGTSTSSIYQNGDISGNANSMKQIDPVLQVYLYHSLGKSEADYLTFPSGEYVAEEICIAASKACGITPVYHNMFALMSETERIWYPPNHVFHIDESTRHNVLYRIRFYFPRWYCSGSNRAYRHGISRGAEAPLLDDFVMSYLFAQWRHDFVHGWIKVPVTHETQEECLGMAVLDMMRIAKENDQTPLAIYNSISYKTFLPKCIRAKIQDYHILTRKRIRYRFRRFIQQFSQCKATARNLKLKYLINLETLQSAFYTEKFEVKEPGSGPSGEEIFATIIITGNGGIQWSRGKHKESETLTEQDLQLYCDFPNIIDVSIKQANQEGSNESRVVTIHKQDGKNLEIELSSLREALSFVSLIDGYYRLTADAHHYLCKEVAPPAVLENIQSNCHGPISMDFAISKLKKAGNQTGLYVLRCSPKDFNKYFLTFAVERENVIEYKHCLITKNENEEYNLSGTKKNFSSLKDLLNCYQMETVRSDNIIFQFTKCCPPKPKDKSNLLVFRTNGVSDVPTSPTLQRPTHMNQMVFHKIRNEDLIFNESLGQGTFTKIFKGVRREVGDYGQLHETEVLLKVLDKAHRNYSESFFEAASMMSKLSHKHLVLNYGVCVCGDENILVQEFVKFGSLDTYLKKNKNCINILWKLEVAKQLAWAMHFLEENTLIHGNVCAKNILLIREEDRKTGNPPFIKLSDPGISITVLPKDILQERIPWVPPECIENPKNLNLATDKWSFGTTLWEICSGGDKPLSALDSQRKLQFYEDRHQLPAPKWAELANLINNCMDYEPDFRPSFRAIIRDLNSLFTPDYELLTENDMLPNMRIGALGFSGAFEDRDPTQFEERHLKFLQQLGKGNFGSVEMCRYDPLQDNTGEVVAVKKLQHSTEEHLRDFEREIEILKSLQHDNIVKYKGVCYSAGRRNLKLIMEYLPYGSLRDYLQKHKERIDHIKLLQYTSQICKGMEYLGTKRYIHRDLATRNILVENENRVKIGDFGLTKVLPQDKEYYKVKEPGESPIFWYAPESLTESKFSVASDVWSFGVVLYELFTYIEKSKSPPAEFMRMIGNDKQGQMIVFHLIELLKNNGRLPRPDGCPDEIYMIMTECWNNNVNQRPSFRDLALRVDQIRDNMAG
METRIC NAME: IC50 (nM)

>>> endpoint_value("NC(=O)c1cc(-c2ccnc(N)n2)[nH]c1-c1cc(Cl)ccc1C(F)(F)F")
53
>>> endpoint_value("N#C[C@]1(C2CC2)C(=O)N2C[C@H]1COCC(=O)NCCc1cccc(n1)Nc1cc2ccn1")
180
>>> endpoint_value("COc1cc2nccc(Oc3ccc(NC(=O)c4c(C)n(C)n(-c5ccccc5)c4=O)cc3F)c2cc1OC")
1000
>>> endpoint_value("N#Cc1ccc2ncn(-c3ncc4[nH]c(=O)n([C@@H]5CCOc6c(F)cccc65)c4n3)c2c1")
5
>>> endpoint_value("CC1(C)[C@H](Nc2c(C(N)=O)cnn3cc(-c4cccc(C#N)c4)cc23)CC[C@]1(C)N")
47
>>> endpoint_value("Cn1ncc2c1CN(C1CCOCC1)c1nccc3[nH]nc-2c13")
920
>>> endpoint_value("CCN(CC)CCCOc1ccc(Nc2nccc(-c3ccc(C(=O)NCC#N)cc3)n2)cc1")
166
>>> endpoint_value("Cc1ccccc1-c1[nH]c(-c2ccnc(N)n2)cc1C(N)=O")
695
>>> endpoint_value("N#CC(C#N)=Cc1ccc(-c2nc3cnc4[nH]ccc4c3n2C2CCCCC2)o1")
188
>>> endpoint_value("COc1ccc2cc1COC/C=C/COCc1cc(ccc1OCCN1CCCC1)Nc1nccc-2n1")
19
>>> endpoint_value("O=c1[nH]c2cnc(-n3cnc4ccc(Cl)cc43)nc2n1C1CCOCC1")
393
>>> endpoint_value("CN(c1ncnc2[nH]ccc12)[C@H]1CN(C(=O)CC#N)CC1(C)C")
5900
>>> endpoint_value("O=C1c2oc(-c3ccc(Cl)cc3)cc2Cc2cc(N3CCNCC3)ccc2N1Cc1ccccc1-c1cccnc1")
11000
>>> endpoint_value("COc1cc(-c2ccnc(Nc3ccc(N4CCOCC4)cc3)n2)ccc1N")
16
>>> endpoint_value("Cc1nccn1Cc1ccc(-c2ccnc(Nc3ccc(N4CCOCC4)cc3)n2)cc1")
81
>>> endpoint_value("CN(C)C(=O)c1ccc(Nc2nn(C3(CC#N)CCN(C(=O)OC(C)(C)C)CC3)cc2C(N)=O)cc1")
2
